# system: Metabotropic glutamate receptor 8 (Rattus norvegicus)
# assay_name: mGluR8 Gi/Go-coupled signaling modulation – cell-based, rat, thallium flux, HTS, primary screen (AID 488969)
# details: HEK293 rat mGluR8, GIRK thallium flux, FluoZin2; at 10 µM; stronger effect = higher value; submaximal glutamate (EC20) added with thallium
In all, about 110,000 compounds were measured (“z-score”: median about -0.1, highest 2% from about 2 on). The entries come from a sample that favours the highest values as a whole.
So basically: z-score at -0.2 or higher? That is satisfied. Lower than -0.2? That is not satisfied.

Observe how each entry below is paired with its result.
Query: Quick check, z-score >= -0.2? Cc1c(NC(=O)C(=O)/C=C(\O)c2ccc(Cl)cc2)c(=O)n(-c2ccccc2)n1C
Reply: satisfied

Query: And what about the molecule CCn1ncc(Cl)c1C(=O)NC(C)c1ccccc1 (stereo unspecified) ?
Reply: satisfied

Query: And what about the molecule COc1ccc(C2Nc3ccccc3C(=O)N2Cc2ccco2)cc1COc1ccc(F)cc1 (stereo unspecified) ?
Reply: not satisfied

Query: And what about the molecule O=C(NC1CCCCC1)C(c1ccccc1)N(Cc1ccco1)C(=O)Cn1cnc2ccccc21 (stereo unspecified) ?
Reply: not satisfied

Query: And what about the molecule Cc1c(NC(=O)C(=O)/C=C(\O)c2ccc(Br)cc2)c(=O)n(-c2ccccc2)n1C ?
Reply: not satisfied

Further cases:
Query: Quick check, z-score >= -0.2? COc1cccc(NC(=O)CSc2nc(N)cc(N)n2)c1
Reply: satisfied

Query: And what about the molecule COc1ccc(OCC(=O)Nc2ccccc2O)cc1 ?
Reply: not satisfied

Query: And what about the molecule CCOc1ccc(OCC(=O)Nc2ccc(OC)cc2)cc1 ?
Reply: not satisfied

Query: And what about the molecule Cc1c(NC(=O)C(=O)/C=C(/O)c2ccccc2)c(=O)n(-c2ccccc2)n1C ?
Reply: not satisfied

Query: And what about the molecule COc1ccccc1NC(=O)CC1COc2ccccc2O1 (stereo unspecified) ?
Reply: satisfied

Query: And what about the molecule COc1ccc(OCC(=O)NNC(=O)C(=O)Nc2ccc(C)cc2)cc1 ?
Reply: satisfied

---

# system: Metabotropic glutamate receptor 8 (Rattus norvegicus) (UniProt P70579)
# Sequence (P70579 whole entry, looked up): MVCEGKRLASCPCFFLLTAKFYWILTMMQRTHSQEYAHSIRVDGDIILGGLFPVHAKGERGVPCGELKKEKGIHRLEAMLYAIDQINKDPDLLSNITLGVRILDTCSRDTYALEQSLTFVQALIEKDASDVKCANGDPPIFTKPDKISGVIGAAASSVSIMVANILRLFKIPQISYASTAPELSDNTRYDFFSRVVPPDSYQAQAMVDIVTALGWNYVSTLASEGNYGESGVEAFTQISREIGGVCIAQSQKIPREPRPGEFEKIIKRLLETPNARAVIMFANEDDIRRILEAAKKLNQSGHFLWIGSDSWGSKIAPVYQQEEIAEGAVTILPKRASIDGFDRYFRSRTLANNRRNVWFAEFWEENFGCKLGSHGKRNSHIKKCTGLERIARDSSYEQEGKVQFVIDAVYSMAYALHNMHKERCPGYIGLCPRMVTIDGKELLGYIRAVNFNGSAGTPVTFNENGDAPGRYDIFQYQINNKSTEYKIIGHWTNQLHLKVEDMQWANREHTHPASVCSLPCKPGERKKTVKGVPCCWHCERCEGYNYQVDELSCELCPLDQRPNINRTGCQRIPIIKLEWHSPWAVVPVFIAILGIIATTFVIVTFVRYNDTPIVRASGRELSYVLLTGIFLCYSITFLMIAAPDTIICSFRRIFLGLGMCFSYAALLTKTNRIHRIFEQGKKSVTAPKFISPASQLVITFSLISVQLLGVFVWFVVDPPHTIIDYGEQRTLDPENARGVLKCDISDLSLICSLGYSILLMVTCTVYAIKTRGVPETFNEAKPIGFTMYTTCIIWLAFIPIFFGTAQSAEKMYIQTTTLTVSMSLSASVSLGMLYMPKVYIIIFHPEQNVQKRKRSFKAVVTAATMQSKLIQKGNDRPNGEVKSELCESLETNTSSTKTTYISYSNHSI
# assay_name: mGluR8 Gi/Go-coupled signaling modulation – cell-based, rat, thallium flux, HTS, primary screen (AID 488969)
# details: HEK293 rat mGluR8, GIRK (G protein-gated inwardly rectifying potassium channel) thallium flux, FluoZin2; at 10 µM; stronger effect = higher value; submaximal glutamate (EC20) added with thallium
Whole data set: some 110,000 compounds, median “z-score” near -0.1, cut for the highest 2% near 2. The list comes from a sample in which the highest values are over-represented; it also holds close analogues and randomly drawn compounds.
So basically: z-score at 0.4 or higher? That is yes. Lower than 0.4? That is no.

Observe how each entry below is paired with its result.
Query: Quick check, z-score >= 0.4? O=C(O)C1CCCCC1C(=O)Nc1cc(Cl)ccc1Cl (stereo unspecified)
Reply: yes

Query: And what about the molecule CCc1ccc(/C=C/C(=O)c2cc(Br)ccc(=O)c2O)cc1 ?
Reply: yes

Query: And what about the molecule CCOC(=O)c1nn(-c2ccc(C)c(C)c2)c(=O)c2c(N)scc12 ?
Reply: no

Query: And what about the molecule COc1ccc(N2CCN(C(=O)c3cn(C4CCCC4)c(=O)c4c3c3ccccc3n4C)CC2)cc1 ?
Reply: no

Query: And what about the molecule COc1ccc(NC(=O)C(=O)NNC(=O)c2cccs2)cc1 ?
Reply: yes

Further cases:
Query: Quick check, z-score >= 0.4? CC(C)CC(NS(=O)(=O)c1ccc2c(c1)oc(=O)n2C)C(=O)NC1CCCc2ccccc21 (stereo unspecified)
Reply: yes

Query: And what about the molecule CCOc1ccc(S(=O)(=O)N(CC(=O)Nc2cc(C)on2)Cc2ccccc2Cl)cc1 ?
Reply: no

Query: And what about the molecule CN(C)CCCNc1oc(-c2ccc(Cl)cc2)nc1C#N ?
Reply: yes

Query: And what about the molecule COc1ccc(NC(=O)c2cccnc2Sc2ccccc2)c(OC)c1 ?
Reply: no

Query: And what about the molecule Nn1c(SCc2cccc3ccccc23)nnc1-c1ccco1 ?
Reply: no

Query: And what about the molecule CNc1ccc(Br)cc(C(=O)/C=C/c2ccc(OC)cc2)c1=O ?
Reply: no

Query: And what about the molecule CCCn1c(SCC(N)=O)nc2c(c1=O)C1(CCCC1)Cc1ccccc1-2 ?
Reply: no

Query: And what about the molecule Cn1c(=O)oc2cc(S(=O)(=O)NC3CCCc4ccccc43)ccc21 (stereo unspecified) ?
Reply: no

Query: And what about the molecule COc1ccccc1C(c1nnnn1CCc1ccccc1)N1CCCCCC1 (stereo unspecified) ?
Reply: yes

Query: And what about the molecule COc1ccccc1NC(=S)N(CCc1c(C)[nH]c2ccccc12)Cc1cccs1 ?
Reply: no

Query: And what about the molecule CN(C)CCNc1oc(COc2ccc(-c3ccccc3)cc2)nc1C#N ?
Reply: yes

Query: And what about the molecule C=CCN1CCN(C(c2ccc(Cl)cc2)c2nnnn2CCc2ccc(OC)c(OC)c2)CC1 (stereo unspecified) ?
Reply: yes

Query: And what about the molecule O=C(CSc1c[nH]c2ccccc12)NCC1CCCO1 (stereo unspecified) ?
Reply: no

Query: And what about the molecule COc1ccc(C(=O)CSc2ccc(-c3ccco3)nn2)cc1 ?
Reply: yes

Query: And what about the molecule Cn1cc(-c2nnnn2-c2ccc(Cl)cc2)c(C(F)(F)F)n1 ?
Reply: no

Query: And what about the molecule COc1cccc(C(=O)OCC(=O)Nc2cc(C)c(C)cc2[N+](=O)[O-])c1 ?
Reply: no

Query: And what about the molecule COc1ccc(S(=O)(=O)NC(C)C(=O)O)cc1 (stereo unspecified) ?
Reply: no

Query: And what about the molecule CCc1cccc(NC(=O)NC2CCCCC2)c1 ?
Reply: yes

Query: And what about the molecule COc1ccc(CCNc2oc(COc3ccccc3)nc2C#N)cc1 ?
Reply: no

Query: And what about the molecule COc1ccc(NC(=O)C(=O)NNC(=O)c2cccs2)c(OC)c1 ?
Reply: yes
